Measured growth inhibition, listed per entry for reference.
Test protocol: NCI Yeast Anticancer Drug Screen. Data for the rad50 strain (AID 155);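 note: 0% = growth of vehicle-only cultures of the same strain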
Run parameters: S. cerevisiae rad50 strain growth inhibition; at 50.0 µM; active compounds read high
Compounds without any hit were thinned out: in the full panel of roughly 79,000, 15% have a hit.
Just the number please, in %, no unit attached.

{"Molecule": "CCOc1ccc(NS(=O)(=O)c2ccc(F)cc2)cc1", "growth inhibition / %": -27.4}
{"Molecule": "Cc1nc2ccccc2o1", "growth inhibition / %": 19.9}
{"Molecule": "NS(=O)(=O)c1ccc(NC(=O)c2cccc3c(=O)c4ccccc4[nH]c23)cc1", "growth inhibition / %": -2.55}

Entry C/C(=C\CNc1ncnc2c1ncn2C1CCCCO1)COP(=O)(O)O (stereo not drawn) , growth inhibition reported as 19.6

Entry "O=C1CCCCCCCCC1=O" , growth inhibition reported as 3.5

Entry "CCc1nc(N)nc(N)c1-c1ccc(NCCN)c(N)c1" , growth inhibition reported as 3.4

Entry c1ccc2c(c1)N=C(c1ccc3ccccc3c1)CC(c1cccc3ccccc13)S2 (stereo not drawn) , growth inhibition reported as 13.2

Entry "CN1CCC(CO)CC1" , growth inhibition reported as -12.8

====

Test protocol: NCI Yeast Anticancer Drug Screen. Data for the bub3 strain (AID 167)
Run parameters: S. cerevisiae bub3 mutant strain, at 50.0 µM, active compounds read high
About 79,000 compounds went through this panel and 15% of them were active in at least one assay; those are over-represented in the sample as a whole.
Measured growth inhibition, listed per entry for reference.
Just the number please, in %, no unit attached.

Entry CN1C(=O)c2ccccc2C(O)(c2ccccc2)C1(O)c1ccccc1 (stereo not drawn) , growth inhibition reported as -12.2

Entry "COC(=N)Cc1cc(OC)cc(OC)c1" , growth inhibition reported as 21.2

Entry "CCCCOC(=O)c1ccc(Cl)c(Cl)c1" , growth inhibition reported as 3

====

Test protocol: NCI Yeast Anticancer Drug Screen. Data for the mlh1 rad18 strain (AID 175)
Run parameters: S. cerevisiae mlh1 rad18 strain growth inhibition; at 50.0 µM
About 79,000 compounds went through this panel and 15% of them were active in at least one assay; those are over-represented in the sample as a whole. The source made the active and inactive calls. Rule as the data show it: active = growth inhibition above about 70%; inactive = the rest.
Returns: one label drawn from Yes for active, No for inactive

Examples from the recorded data:
{"Compound": "CCOC(=O)NN(C(=O)OCC)C(C(=O)C1CCCCC1)N(NC(=O)OCC)C(=O)OCC", "Qualitative label": "No"}
{"Compound": "O=C1c2ccccc2C(=O)N1CCSCCSCCN1C(=O)c2ccccc2C1=O", "Qualitative label": "No"}
{"Compound": "CCCn1c(=O)n(C)c(=O)c2c1ncn2C", "Qualitative label": "No"}
{"Compound": "N#CC(C(N)=O)C(CC(=O)c1ccccc1)c1ccccc1 (centres undefined)", "Qualitative label": "No"}
{"Compound": "CC(=O)NN", "Qualitative label": "No"}
{"Compound": "Nc1nc(C2CCCC2)c(Br)c(=O)[nH]1", "Qualitative label": "No"}
{"Compound": "CC(C)N(C(=S)[S-])C(C)C.CC(C)N(C(=S)[S-])C(C)C.[Zn]", "Qualitative label": "Yes"}
{"Compound": "CCCCCCCCCCCCCCCCOc1ccc(OCCCCCCCCCCCCCCC)cc1", "Qualitative label": "No"}
{"Compound": "COC(=O)c1c2c(cc3c1CC1(C3)Cc3cc4c(c(C(=O)OC)c3C1)CCC4)CCC2", "Qualitative label": "No"}
{"Compound": "CC(C)(C)OC(=O)c1cccc(C(=O)OC(C)(C)C)c1", "Qualitative label": "No"}

Field: outcome | Entry: "Nc1cc([N+](=O)[O-])cc(S(=O)(=O)O)c1O"
No

Field: outcome | Entry: "O=C(O)Cn1cc(I)c(=O)c(I)c1"
No

Field: outcome | Entry: "CCOC(=O)C(=C/C=C/NCCc1c[nH]c2ccccc12)C(=O)OCC"
No

Field: outcome | Entry: "CCOc1ccc(Nc2nc(C(Cl)(Cl)Cl)cc(C(Cl)(Cl)Cl)n2)cc1CN(CC)CC"
Yes

====

Test protocol: NCI Yeast Anticancer Drug Screen. Data for the cln2 rad14 strain (AID 165);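 note: 0% = growth equal to vehicle treated cultures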
Run parameters: S. cerevisiae cln2 rad14 strain, at 50.0 µM
Compounds without any hit were thinned out: in the full panel of roughly 79,000, 15% have a hit. Activity calls are given as the source filed them. No stated cut-off is given here; in the data, active means growth inhibition above about 70%; inactive means the rest.
Returns: one label drawn from active, inactive

{"Compound": "CN(C)P(=O)(Nc1ccc(Cl)cc1)Nc1ccc(Cl)cc1", "Qualitative label": "inactive"}
{"Compound": "COc1c(-c2ccccc2)c(=O)n2c3cc(C)c(C)cc3n(C)c2c1C#N", "Qualitative label": "inactive"}
{"Compound": "O=C1NCCCC1CCO (stereo not drawn)", "Qualitative label": "inactive"}
{"Compound": "CCCCCCCCCCS(C)(=O)=O", "Qualitative label": "inactive"}
{"Compound": "OCC1c2ccccc2C(CO)c2c1ccc1ccccc21 (stereo not drawn)", "Qualitative label": "inactive"}
{"Compound": "O=C1c2ccccc2-c2ccc(I)cc21", "Qualitative label": "inactive"}

Field: outcome | Entry: "CCNc1ncnc2sc(SCc3ccccc3)nc12"
inactive

Field: outcome | Entry: "CCCCCCCNC(=O)C(Cl)Cl"
inactive

Field: outcome | Entry: "O=C(CC(O)(C(F)(F)F)C(F)(F)F)c1cccs1"
inactive

Field: outcome | Entry: CC(C)C1CC(N(C)C)=CC(=O)N1 (stereo not drawn)
inactive

Field: outcome | Entry: "O=C(CN1CCOCC1)Nc1ccc(S(=O)(=O)c2ccc([N+](=O)[O-])cc2)cc1"
active

Field: outcome | Entry: "O=C(c1cccc(C(F)(F)F)c1)c1ccccc1Cc1ccccc1"
inactive

====

Test protocol: NCI Yeast Anticancer Drug Screen. Data for the sgs1 mgt1 strain (AID 161);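 note: 0% = growth of cultures given vehicle only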
Run parameters: S. cerevisiae sgs1 mgt1 strain, at 50.0 µM, active compounds read high
Compounds without any hit were thinned out: in the full panel of roughly 79,000, 15% have a hit.
Measured growth inhibition, listed per entry for reference.
Just the number please, in %, no unit attached.

{"Compound": "NS(=O)(=O)c1ccc(NC(=O)c2cccc3c(=O)c4ccccc4[nH]c23)cc1", "Readout kind": "growth inhibition", "Quantitative result": -13.2}
{"Compound": "CC(=O)OC[C@@H](COC(=O)/C=C/c1ccc(O)cc1)OC1OC(CO)C(O)C(O)C1O (stereo not given in full)", "Readout kind": "growth inhibition", "Quantitative result": -21.8}
{"Compound": "COc1ccccc1NC(=O)C(=O)C1C(=O)Nc2ccccc2S1=O (stereo not given)", "Readout kind": "growth inhibition", "Quantitative result": -44.6}
{"Compound": "O=C(/C=C/c1ccc(Cl)cc1)c1ccccc1O", "Readout kind": "growth inhibition", "Quantitative result": -6.05}
{"Compound": "C(=Nc1cnc2ccccc2c1)c1ccc2ccccc2n1", "Readout kind": "growth inhibition", "Quantitative result": -11.3}

Entry "c1ccc(Cc2c[nH]c3ccccc23)cc1" , growth inhibition reported as 9.4

====

Test protocol: NCI Yeast Anticancer Drug Screen. Data for the mlh1 rad18 strain (AID 175)
Run parameters: S. cerevisiae mlh1 rad18 strain growth inhibition; at 50.0 µM; active compounds read high
The panel holds about 79,000 compounds, 15% with a hit somewhere; the sample as a whole holds those more often.
Readout kind: growth inhibition (%)
Just the number please, in %, no unit attached.

// worked examples, growth inhibition included
{"Compound": "O=c1cnc2c(ccc3ccccc32)[nH]1", "Readout kind": "growth inhibition", "Units text": "%", "Quantitative result": -5.95}
{"Compound": "CC(C)(CO)NC(=O)c1ccccc1Br", "Readout kind": "growth inhibition", "Units text": "%", "Quantitative result": 7.8}
{"Compound": "CC(=O)Oc1ccc(C2c3cc(OC(C)=O)c(OC(C)=O)cc3CC3C(=O)OCC32)cc1OC(C)=O (stereo unspecified)", "Readout kind": "growth inhibition", "Units text": "%", "Quantitative result": 1.1}
{"Compound": "Cc1ccc(S(=O)(=O)OCC2C(c3ccccc3)CCC(c3ccccc3)C2COS(=O)(=O)c2ccc(C)cc2)cc1 (stereo unspecified)", "Readout kind": "growth inhibition", "Units text": "%", "Quantitative result": 4.45}
{"Compound": "CC(C)SC(C)(NC(=O)C1C(C)(C)CCC1(C)C)C(=O)O (stereo unspecified)", "Readout kind": "growth inhibition", "Units text": "%", "Quantitative result": -49.5}

Entry "COC(=O)c1ccccc1NC(=O)c1cc(C(=O)O)c(C(=O)Nc2ccccc2C(=O)OC)cc1C(=O)O" , growth inhibition reported as 23.1

Entry "N#CCCN(CCC#N)c1ccc(C=O)cc1" , growth inhibition reported as 13.6

Entry "CCCCCCCCCCCCCCCCS(=O)(=O)N/N=C/c1ccc(N(C)C)cc1" , growth inhibition reported as 13.7

Entry C=C(C)C(=O)N1c2ccc(OC)cc2CC1C(=O)OCC (stereo unspecified) , growth inhibition reported as 4.55

Entry "CSc1nc(C=O)nc(SC)n1" , growth inhibition reported as -17.1

Entry "CC(C)=CCC1=C(O)c2ccccc2C(=O)C1=O" , growth inhibition reported as 13.1

Entry "COC(=O)c1nc2nnc(N)n2c(-c2ccc(Cl)cc2)c1C" , growth inhibition reported as 0.75
